- TGT: human ether-à-go-go-related gene (hERG) potassium channel (human, UniProt Q12809)
- Sequence (Q12809 whole entry, looked up): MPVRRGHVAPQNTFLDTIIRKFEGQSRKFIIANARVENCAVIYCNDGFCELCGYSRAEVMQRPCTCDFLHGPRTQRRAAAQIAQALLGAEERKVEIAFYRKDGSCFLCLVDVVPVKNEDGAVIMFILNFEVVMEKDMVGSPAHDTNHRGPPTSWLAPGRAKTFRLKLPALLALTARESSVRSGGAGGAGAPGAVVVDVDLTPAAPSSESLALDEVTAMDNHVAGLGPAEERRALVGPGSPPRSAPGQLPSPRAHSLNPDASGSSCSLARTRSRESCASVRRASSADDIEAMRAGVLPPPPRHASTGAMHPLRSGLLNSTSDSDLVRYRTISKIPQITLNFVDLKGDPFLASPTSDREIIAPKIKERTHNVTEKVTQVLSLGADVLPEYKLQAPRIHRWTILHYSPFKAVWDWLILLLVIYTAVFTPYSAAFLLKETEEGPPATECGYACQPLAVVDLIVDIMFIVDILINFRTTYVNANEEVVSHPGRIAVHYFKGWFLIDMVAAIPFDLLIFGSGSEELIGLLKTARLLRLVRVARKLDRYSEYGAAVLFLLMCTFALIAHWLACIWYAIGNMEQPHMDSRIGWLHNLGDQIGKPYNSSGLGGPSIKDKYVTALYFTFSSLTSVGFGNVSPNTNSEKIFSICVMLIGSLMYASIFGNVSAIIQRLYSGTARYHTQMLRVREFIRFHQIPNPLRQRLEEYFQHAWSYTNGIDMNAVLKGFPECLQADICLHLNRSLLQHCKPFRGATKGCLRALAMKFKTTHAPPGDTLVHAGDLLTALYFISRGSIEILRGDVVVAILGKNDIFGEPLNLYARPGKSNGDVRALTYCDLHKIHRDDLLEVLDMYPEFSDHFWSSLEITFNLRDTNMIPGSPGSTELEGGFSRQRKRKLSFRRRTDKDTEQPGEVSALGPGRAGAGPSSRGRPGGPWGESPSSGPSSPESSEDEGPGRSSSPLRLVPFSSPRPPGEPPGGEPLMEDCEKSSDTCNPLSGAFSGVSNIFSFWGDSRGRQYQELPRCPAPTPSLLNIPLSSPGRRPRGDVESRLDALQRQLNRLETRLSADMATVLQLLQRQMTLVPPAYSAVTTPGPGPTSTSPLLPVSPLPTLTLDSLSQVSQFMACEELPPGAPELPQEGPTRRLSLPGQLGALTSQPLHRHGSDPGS
- TEST_PROTOCOL: primary screen, population patch clamp on CHO cells stably expressing hERG; higher = less effect of the substance;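 note: peak tail current of the secondary pulse compared with the same well before compound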
Out of some 310,000 compounds screened, about 14,000 (4.5%) showed an effect of 50% or more. Effects have a minus sign here. The sample as a whole holds a higher share of strong results than the screen did.
Lab note: anything with hERG current change (%, negative = inhibition) at 10uM at or over -30% counts as condition met; the rest go in condition not met.

Sample answers from the record:
> print(dat)
                                   molecule  qualitative.label
1  CC1(C)SC2c3ccccc3C(=O)N2[C@@H]1C(=O)NC1CC1 (some centres unmarked)      condition met
2  O=C(NCc1nc2ccccc2[nH]1)C1=C[C@H](c2coc3ccccc3c2=O)C[C@H](OCc2ccc(CO)cc2)O1      condition met

// inclusive: hERG current change (%, negative = inhibition) at 10uM at least -30%? input: O=C(NCc1ccccc1)C1=C[C@@H](c2csc3ccccc23)C[C@@H](OCCCCO)O1 condition not met

Is reported hERG current change (%, negative = inhibition) at 10uM greater than or equal to -30% here: O=C(CCC(=O)c1cccs1)NCc1cccc(C(F)(F)F)c1 condition met

Test whether the molecule CCOCCCn1c(SCC(=O)Nc2ccc(OC)cc2)nc2ccccc2c1=O records hERG current change (%, negative = inhibition) at 10uM of -30% or higher. condition met

Is it the case that CCc1cc2c(=O)n(-c3ccccc3)cnc2s1 has hERG current change (%, negative = inhibition) at 10uM reaching or exceeding -30%? condition met

Identify whether the reported hERG current change (%, negative = inhibition) at 10uM of the following molecule is -30% or greater: COc1cc(C(=O)Nc2c(C(=O)N3CCOCC3)oc3ccccc23)cc(OC)c1OC condition met

Dear colleague, could you confirm whether O=C(c1ccc(F)cc1)N1CCC(N2CCCCCC2)CC1 has hERG current change (%, negative = inhibition) at 10uM at or above -30%? condition met

Quick check, hERG current change (%, negative = inhibition) at 10uM >= -30%? COCCCNC(=O)CSc1nc2ccccc2c(=O)n1Cc1ccc2c(c1)OCO2 condition met

Item O=C(NCc1nc2ccccc2[nH]1)C1=C[C@H](c2coc3ccccc3c2=O)C[C@H](OCCCCO)O1 with hERG current change (%, negative = inhibition) at 10uM of -30% or above? condition not met

###

- TGT: human ether-à-go-go-related gene (hERG) potassium channel (human, UniProt Q12809)
- TEST_PROTOCOL: primary screen, population patch clamp on CHO cells stably expressing hERG; higher = less effect of the substance
Out of some 310,000 compounds screened, about 14,000 (4.5%) showed an effect of 50% or more. Effects have a minus sign here. This excerpt belongs to a sample that is enriched for strong results.
Answer not met if hERG current change (%, negative = inhibition) at 10uM is under -20%, and met if it is -20% or more.

Example entries and their recorded answers appear below.
> print(dat)
                                   compound  qualitative.label
1  O=C(NC1CCCC1)C(c1ccncc1)N(C(=O)c1ccco1)c1ccccc1 (centres unmarked)                met
2  CC1CC(C)CN(C(=O)c2nn(C)c3c2CS(=O)(=O)c2ccccc2-3)C1 (centres unmarked)                met
3  CN(CC1CCCN(CCc2ccc(Cl)cc2)C1)C(=O)c1ccco1 (centres unmarked)            not met

Please check the record Cc1cccn2c(=O)c3cc(C#N)c(=O)n(-c4c(C)n(C)n(-c5ccccc5)c4=O)c3nc12 and state if its hERG current change (%, negative = inhibition) at 10uM is at or above -20%. met

Answer whether hERG current change (%, negative = inhibition) at 10uM of O=C(N/N=C1\C(=O)c2cccc3cccc1c23)c1ccc(O)cc1 is greater than or equal to -20%. met

Does the compound Cc1cc(CNC(=O)COc2ccc(C#N)cc2)c2ccccc2n1 have recorded hERG current change (%, negative = inhibition) at 10uM that is -20% or more? not met

###

- TGT: human ether-à-go-go-related gene (hERG) potassium channel (human, UniProt Q12809)
- TEST_PROTOCOL: primary screen, population patch clamp on CHO cells stably expressing hERG; higher = less effect of the substance
- Experimental: Briefly, Chinese hamster ovary (CHO) cells stably expressing the hERG channel were dislodged from tissue culture flasks and dispensed into PPC plates. […] During the recording, background leak currents were estimated by a 100 ms step to -80 mV from an initial holding potential of -70 mV and subtracted from the subsequent current measurement. The campaign was conducted in two phases using slight differences in recording protocol. […]
Hit rate of the full screen: of about 310,000 compounds, about 14,000 (4.5%) showed an effect of 50% or more. The effect is printed as a negative number. The entries come from a sample that favours strong results as a whole.
QUANTITY_KIND: hERG current change (%, negative = inhibition) at 10uM (%)
// return numeric value only (unit: %, not printed)

Answered examples (4):
> print(dat)
                                   molecule  display.unit  numeric.value
1  Cc1ccc(N2C(=O)C(CC(=O)Nc3cccc(F)c3)N(CCc3ccncc3)C2=O)cc1 (stereo not drawn)             %          -52.3
2  COc1ccc(CNc2ncc(-c3ccccc3)n2C)c2ccccc12.O=C(O)C(=O)O             %          -34.5
3  CCOc1ccc(-c2cnc(NCc3cccc4ccccc34)n2CCOC)cc1.O=C(O)C(=O)O             %          -58.8
4  CCc1ccc(NC(=O)CC2C(=O)N(c3ccc(C)cc3)C(=O)N2CCc2ccncc2)cc1 (stereo not drawn)             %          -55.8

Output hERG current change (%, negative = inhibition) at 10uM of Cc1ccc(N2C(=O)C(CC(=O)Nc3cccc(F)c3)N(C3CC3)C2=O)cc1 (stereo not drawn) -7.13

Item C=Cn1c(C(=O)O)ccc1-c1ccc(CC)cc1 : provide hERG current change (%, negative = inhibition) at 10uM -5.29

Give the measured hERG current change (%, negative = inhibition) at 10uM for Cc1cccc(N2C(=O)C(CC(=O)Nc3cccc(F)c3)N(CCc3ccncc3)C2=O)c1 (stereo not drawn) -43.6

Entry CCc1ccc(NC(=O)CC2C(=O)N(c3ccc(C)cc3)C(=O)N2C2CC2)cc1 (stereo not drawn) needs its hERG current change (%, negative = inhibition) at 10uM filled in; supply it. -4.46

Give recorded hERG current change (%, negative = inhibition) at 10uM. COc1ccc(NC(=O)N2CCCC(c3nc(-c4ccc(OC)cc4)no3)C2)cc1 (stereo not drawn) -4.38

###

- TGT: human ether-à-go-go-related gene (hERG) potassium channel (human, UniProt Q12809)
- TEST_PROTOCOL: primary screen, population patch clamp on CHO cells stably expressing hERG; higher = less effect of the substance
The whole screen tested about 310,000 compounds, of which about 14,000 (4.5%) showed an effect of 50% or more. The effect is printed as a negative number. Many of the other results were omitted from the sample, so strong results are more common in it than they were.
QUANTITY_KIND: hERG current change (%, negative = inhibition) at 10uM
# number then unit; no other words

> print(dat)
                            chemical.smiles  result
1  COc1cc(OC)cc(C(=O)Nc2cccc(NC(=O)c3ccccc3)c2)c1  -27.3%
2  CCn1c(CCNC(=O)c2cccs2)nnc1SCC(=O)Nc1ccc(Cl)cc1  -49.7%
3        CCOC(=O)Nc1cccc(NC(=O)c2ccccc2F)c1   7.84%
4              CCOC(=O)Nc1cccc(Nc2ccccc2)c1  -74.8%

Read the entry Cn1c(CNC(=O)c2cccs2)nnc1SCC(=O)Nc1ccc(Cl)cc1 and write its reported hERG current change (%, negative = inhibition) at 10uM. -35.4%

Return value of hERG current change (%, negative = inhibition) at 10uM for input CCn1c(CCNC(=O)c2cccs2)nnc1SCC(=O)Nc1cccc(Cl)c1 , no commentary. -64.5%

Using the record for CCc1nnc(NC(=O)CSc2nnc(CNc3cccc(Cl)c3)n2CC)s1 , state its measured hERG current change (%, negative = inhibition) at 10uM. -59.6%

Given the molecule CCc1nnc(NC(=O)CSc2nnc(CNc3cccc(C)c3)n2-c2ccccc2)s1 , write its reported hERG current change (%, negative = inhibition) at 10uM. 3.35%

Tell us which hERG current change (%, negative = inhibition) at 10uM value is on record for CCOC(=O)Nc1cccc(C(=O)O)c1 8.63%

Supply recorded hERG current change (%, negative = inhibition) at 10uM for COc1cc(OC)cc(C(=O)Nc2cccc(NC(C)=O)c2)c1 here. -1.56%
